I'd be grateful if you could share measured melting point for these entries.

Input: Supply reported melting point belonging to this compound: "CCCCCC1(C=Cc2ccc(C(=O)O)cc2)CC2=C(C1)C(C)(C)CCC2(C)C"
Output: 121 to 123 °C

Input: Read the entry "CC(C)(CNS(=O)(=O)c1ccc(-c2ccccn2)s1)N1CCC(Oc2ccc(F)c(F)c2)CC1" and write its reported melting point.
Output: 133 to 134 °C

Input: Fill in reported melting point for this entry: "CCc1cc2c(ccc(=O)n2Cc2ccc([N+](=O)[O-])cc2)c(CC)n1"
Output: 153 to 156 °C

Input: Check the records and state melting point for "COc1cc(C)c(S(=O)(=O)c2ccccc2)cc1OC"
Output: 162 to 163 °C

Input: Give me measured melting point, please, for this compound: "CC(C)(C)n1c(=O)n(-c2ccnc(NC(=O)NCc3ccccn3)c2)c2ccccc21"
Output: 164 to 165 °C

---

Measurement Type: melting point

Input: Please give measured melting point of the following entry: "O=C(O)c1ccc(-c2cnc3c(c2)N(Cc2c(F)ccc(F)c2Cl)C(=O)CN3)cc1"
Output: > 300 °C

Input: Provide one value: measured melting point of "CCCCc1nc(C(=O)C(C)(C)C)c(C#N)[nH]1"
Output: 135 to 137 °C

Input: Respond only with melting point recorded for "Cc1ccc(-c2ccccc2-c2nn[nH]c2C#N)cc1"
Output: 170 to 172 °C

Input: Quote melting point reported for COc1ccc(OCC(C)Oc2ccc(OC)cc2)cc1 (configuration not stated) please.
Output: 84 to 84.5 °C

Input: Tell us which melting point value is on record for "CCCCc1nc(C(C)(C)O)c(C(=O)O)n1Cc1ccc(-c2ccccc2C(=O)C(=O)O)cc1"
Output: 165 to 170 °C

Input: Please report melting point for the following compound: O=CNNC(C(=O)O)c1ccccc1 (configuration not stated)
Output: 137 °C

Input: Specify reported melting point for the compound shown: "Cc1ccc(C)c(Sc2ccc(C#N)cc2S(=O)(=O)N2CCOCC2)c1"
Output: 181 to 184 °C

Input: Give me measured melting point, please, for this compound: "CC1(C)CC(C)(C)CC(CCCC(=O)O)(NC(=O)CCl)C1"
Output: 140 to 141 °C

Input: Determine from records and report melting point for "CN(C)Cc1c(-c2ccc(O)cc2)[nH]c2ncnc(Nc3cccc(Cl)c3)c12"
Output: 269 to 271 °C

Input: Please supply the value of reported melting point for the item "Cn1c(=O)c2c(N)ncnc2n(C)c1=O"
Output: > 300 °C

Input: Identify the reported melting point for the following entry. "CC1(C)C(=O)ON(Cc2ccccc2Br)C1=O"
Output: 44.5 to 45.5 °C

Input: State its melting point: CCCCCCCCCCCCOC(C)c1ccc(C(=O)O)cc1 (single isomer, unassigned; (+))
Output: 49.5 to 50 °C

Input: Please indicate melting point recorded for COc1ccc2ccc(N3Cc4ccccc4C3OCC(=O)O)nc2n1 (configuration not stated)
Output: 190 °C

Input: // fetch melting point given entry "CS(=O)(=O)c1ccc(-c2c(-c3ccccc3F)[nH]c3ccc(Cl)cc23)cc1"
Output: 246 to 248 °C

Input: Give the value of melting point reported for the following: "Cc1nc(NCc2ccccn2)n(C)c(=O)c1CCO"
Output: 245 °C

Input: Tell me melting point reported for "CCCCC(=O)Nc1c(OC)cccc1[N+](=O)[O-]"
Output: 113 to 114 °C

Input: Give melting point for the following compound: "C1CCc2c(c3c(N4CCCC4)nc(N4CCCC4)nc3n2CCN2CCOCC2)C1"
Output: 132 to 133 °C

Input: Consider the compound "COc1cc(C2=C(C(C)(C)C)C(C)(C)CO2)cc2oc(-c3ccccc3)nc12" and give its recorded melting point.
Output: 68.5 to 69 °C

Input: For the compound "CCOC(=O)COc1nnc(-c2ccc3c(c2)CCO3)o1" , give its measured melting point value.
Output: 103 to 104 °C

Input: Respond only with melting point recorded for "Cc1cccc(-c2[nH]c(C(C)C)nc2-c2cccc(-c3ccc4c(c3)CCS4(=O)=O)c2)n1"
Output: 128 to 131 °C

Input: Answer with reported melting point of "CC(C)(C)OC(=O)N[C@H]1CC[C@H](CN2CCN(c3cccc4c3CCC4)CC2)CC1"
Output: 131 to 134 °C

Input: Query melting point for O=CN1C(=O)c2ccccc2OC1C(Cl)(Cl)Cl (configuration not stated)
Output: 114 °C

Input: Quick one: give measured melting point for Nc1ccc(CN2C(=O)C3(COc4cc5c(cc43)OCCO5)c3ccccc32)cn1 (configuration not stated)
Output: 117 to 119 °C

Input: Please give measured melting point of the following entry: "Cc1ccc(-c2c(-c3ccc(S(C)(=O)=O)cc3)cnn(-c3ccc(F)cc3)c2=O)cc1F"
Output: 245 to 248 °C

Input: Given "Cc1cccc2c1C(=O)N(C)Cc1c(I)ncn1-2" , respond with its melting point.
Output: 106 to 108 °C

Input: Provide only the value of recorded melting point for "COc1cc2c(cc1OC)C(C)=[N+]([O-])CN2"
Output: 161 to 163 °C

Input: Tell me melting point reported for S=C1N[C@@H](c2ccccc2)[C@H](c2ccccc2)N1 (relative stereo)
Output: 212 to 214 °C

Input: Answer with reported melting point of "CC(C)(C)OC(=O)c1ccc(C=NO)cc1"
Output: 113 to 114 °C

Input: Specify reported melting point for the compound shown: "CN1CCc2c(c3ccccc3n2CCC(=O)NN)C1"
Output: 123 to 124 °C

Input: Specify measured melting point for "COc1cccc(-c2[nH]c(-c3ccc(N)cc3)nc2C(=O)Nc2nccs2)c1" .
Output: 262 to 263 °C

Input: Recall and state the measured melting point for "CCC1(CC)C(=O)N(C(C)(C)C)CC(C)(C)N1OC(C)(C)C#N" .
Output: 68 to 71 °C

Input: Write down melting point measured for item CC1(C)[C@@H](C(=O)Nc2cc(C(F)(F)F)n[nH]2)[C@@H]1c1ccccc1 (relative stereo)
Output: 68 to 71 °C

Input: Give reported melting point value for "N#CC(C#N)=C1c2cc(N)c(Cl)cc2-c2cc(Cl)c(N)cc21"
Output: 336 to 338 °C

Input: Dear colleague, please send me the reported melting point for "Cc1nc2nc[nH]c2c(=O)[nH]1" when you can.
Output: > 300 °C

Input: For the compound "CC(=N)Nc1nc(-c2ccccn2)nc2ccccc12" , give its reported melting point.
Output: 172 to 173 °C

Input: Identify the reported melting point for the following entry. "COc1ccc(Cl)c(S(=O)(=O)NC(=O)c2cn3cc(C(F)(F)F)cc(Br)c3n2)c1"
Output: 191 to 192 °C

Input: Using known records, supply melting point for "Cc1cc(C)n(Cc2ccc(Cl)cc2Cl)c1/C=C/C(=O)O"
Output: 193 to 194 °C

---

For each record, write down the corresponding melting point.

Input: Using known records, supply melting point for "CCCc1c(OCCCC/C=C/c2ccc(C(=O)c3cccc(C(=O)O)c3)cc2CCC(=O)O)ccc2c1OCCC2=O"
Output: 105 to 109 °C

Input: Tell me melting point reported for "COC(=O)CCCc1cc2nc(Cl)ccc2n1S(=O)(=O)c1ccc(N(C)C)cc1Cl"
Output: 123 to 124 °C

Input: Please list melting point recorded for the compound COc1cc(I)c(CC(C)N2CCCC2)cc1OC (centres undefined)
Output: 87 to 88 °C

Input: For the compound "Oc1cncc2sccc12" , give its reported melting point.
Output: 206 °C

Input: Give the value of melting point reported for the following: "COC(=O)CCc1cnoc1-c1ccc([N+](=O)[O-])cc1"
Output: 118 to 119 °C

Input: Fill in melting point for record "COC(=O)CCC(=C1SCCCS1)c1ccc(Oc2ccccc2)cc1"
Output: 95 to 96 °C

Input: Hello, please tell me recorded melting point for this one: "CCCCCCCCCCCCCc1nc(NC(=O)Nc2c(C(C)C)cccc2C(C)C)no1"
Output: 99 to 101 °C

Input: Supply melting point value. Item: "O=S1(=O)CCN2C=CC=C(c3ccc(Oc4ccc(Cl)cc4)cc3)C2=N1"
Output: 232 to 234 °C

Input: For the compound "CCCc1[nH]c2cc(C(=O)OC)ccc2c1C(=O)C1CC1" , report melting point.
Output: 152 to 154 °C

Input: Determine from records and report melting point for "Fc1ccc(-c2ncn(CCCCl)c2-c2ccncc2)cc1"
Output: 139 to 140 °C

Input: Provide only the value of recorded melting point for "O=C(O)c1cc(C(F)(F)F)ccc1OCc1ccccc1"
Output: 94 to 95 °C

Input: Recall and state the measured melting point for COc1ccc(CC(C#N)C(=O)O)cc1 (centres undefined) .
Output: 94 to 95 °C

Input: Tell me its melting point given "CS(=O)(=O)c1ccc(-c2c(-c3ccc(F)cc3)c(C(F)(F)F)nn2-c2ccccc2)cc1" as the entry.
Output: 202 to 203 °C

Input: Please report melting point for the following compound: "CN(C)Cc1ccc(CSCCNC2=NS(=O)(=O)N=C2N)o1"
Output: 156 to 158 °C

Input: Name the recorded melting point of the compound listed here: CC1C(C)(C)c2ccc(C#Cc3ccc(C=O)cc3)cc2C1(C)C (centres undefined)
Output: 106 to 107 °C

Input: Check the records and state melting point for "Cc1c(C)c2c(c(C)c1O)CC[C@@](C)(CCO)O2"
Output: 155 °C

Input: Report measured melting point; entry is "CC(C)(C)NC(=O)[C@@H]1C[C@H](Cl)CN1C(=O)[C@@H](O)[C@H](Cc1ccccc1)NC(=O)[C@H](CCS(N)(=O)=O)NC(=O)OCc1ccccc1"
Output: 115 to 122 °C

Input: Assign melting point to the following record: "Cn1cc(Br)nc(Nc2ccc3c(c2)CCNC3)c1=O"
Output: 170 to 171 °C

Input: Input "c1ccc2c(N3CCCCC3)nc(N3CCCCC3)nc2c1" , output reported melting point.
Output: 128 to 131 °C

Input: Note down melting point recorded for "CCc1noc(-c2ncc3[nH]c4cccc(Oc5ccc(Cl)cc5)c4c3c2COC)n1"
Output: 170 °C

Input: Give reported melting point value for Cc1ccc(C(=O)NC(NC(=NC#N)Nc2cncnc2)C(Cl)(Cl)Cl)cc1 (centres undefined)
Output: 186 to 188 °C

Input: Output melting point of O=C1Nc2cc(F)ccc2C1CCCCN1CCN(c2ccccn2)CC1 (centres undefined)
Output: 136 to 137 °C

Input: Tell us which melting point value is on record for "O=C1Nc2cccnc2N(CC#CCN2CCCC2)c2ccccc21"
Output: 153 °C

Input: Provide melting point value for the following compound: COc1cc2c(c(OC)c1)C1CCC3(C)C(=O)CCC3C1CC2 (centres undefined)
Output: 132 to 133 °C
